- System Tested: NADPH oxidase 5 (Homo sapiens) (UniProt Q96PH1)
- Sequence (Q96PH1 whole entry, looked up): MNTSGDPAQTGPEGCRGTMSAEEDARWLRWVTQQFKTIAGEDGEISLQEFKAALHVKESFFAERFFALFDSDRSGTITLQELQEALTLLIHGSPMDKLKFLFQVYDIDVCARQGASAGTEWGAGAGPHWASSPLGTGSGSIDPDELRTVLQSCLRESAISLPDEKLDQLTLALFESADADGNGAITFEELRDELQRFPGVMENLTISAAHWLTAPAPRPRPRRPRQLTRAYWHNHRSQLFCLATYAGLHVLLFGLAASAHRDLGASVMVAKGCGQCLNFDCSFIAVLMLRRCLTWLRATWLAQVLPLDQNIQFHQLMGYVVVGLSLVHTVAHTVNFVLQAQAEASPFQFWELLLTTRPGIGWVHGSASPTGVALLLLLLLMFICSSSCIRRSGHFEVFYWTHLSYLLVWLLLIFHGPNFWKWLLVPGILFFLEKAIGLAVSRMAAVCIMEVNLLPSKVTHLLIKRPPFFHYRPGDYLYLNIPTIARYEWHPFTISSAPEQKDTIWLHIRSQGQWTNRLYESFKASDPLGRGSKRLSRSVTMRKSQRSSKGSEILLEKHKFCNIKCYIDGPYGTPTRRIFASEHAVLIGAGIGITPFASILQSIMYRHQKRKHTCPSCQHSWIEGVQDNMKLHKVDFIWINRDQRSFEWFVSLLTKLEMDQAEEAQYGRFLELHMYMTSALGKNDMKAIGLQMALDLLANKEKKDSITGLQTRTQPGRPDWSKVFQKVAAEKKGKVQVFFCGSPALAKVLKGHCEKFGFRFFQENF
- Assay: NOX5-dependent H2O2 signal modulators, primary screen, NOX inhibitor project, cell-based, HEK293-NOX5, Amplex Red fluorescence (AID 1161)
- Cond: HEK293-NOX5, ionomycin, 45 min, higher = more signal
Measurement Label: z-score

Reference set (6 entries):
1) CC(C)CON=C1C[C@@H](O)[C@@H](O)[C@@H]2[C@@H]3C(=O)N(Cc4ccccc4)C(=O)[C@@H]3CC[C@H]12: 0.588
2) CCOC(=O)[C@H](Cc1ccccc1)NC(=O)CCC1CC(OC(=O)NCc2ccc3c(c2)OCO3)CC2(CCCC(COC(=O)NCCc3ccc(Cl)cc3)O2)O1 (some centres not stated): 1.63
3) CC(C)=NOC[C@@H](O)[C@H]1O[C@@H]2OC(C)(C)O[C@@H]2[C@H]1O: 0.0874
4) CON=C(C)CCN1CCc2nc(-c3ccccc3)c(-c3ccccc3)cc2C1: -6.68
5) CCN1C(=O)[C@H]2[C@H]3[C@H](O)[C@H](O)CC(=NO[C@H](C)c4cn([C@H](CO)Cc5ccccc5)nn4)[C@@H]3CC[C@H]2C1=O: -0.116
6) COC(=O)CC=C[C@@H](C)[C@@H](C=NOC[C@@H](O)COCc1ccco1)NS(=O)(=O)c1ccc(C)cc1: -0.106

Next, consider the following compound.
Task: Param item = CC(C)CON=C1C[C@@H](O)[C@@H](O)[C@@H]2[C@@H]3C(=O)N(Cc4ccc5c(c4)OCO5)C(=O)[C@@H]3CC[C@@H]12 ; retrieve measured z-score.
Output: 0.443

###

- Assay: binders of probe aFSTL3 on microarray, primary screen, stem cell growth factor project, biochemical, small-molecule microarray, fluorescence 635/667 (AID 1064);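 also: measures binding of the biotinylated anti-FSTL3 antibody to printed compounds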
- Cond: higher = more signal
Measurement Label: composite z-score

Reference set (3 entries):
1. CCOC(=O)[C@H](Cc1ccccc1)NC(=O)CCC1CC(OC(=O)NCc2ccc3c(c2)OCO3)CC2(CCCC(COC(=O)NCCCN3CCCC3=O)O2)O1 (stereo partly drawn): -0.578
2. O=C1CCCC=C1C(O)COCc1ccccc1 (stereo not drawn): -0.356
3. CC(C)(C)N1C(=O)[C@H]2[C@H]3[C@H](O)[C@H](O)CC(=NNC(=O)OCc4ccccc4)[C@@H]3CC[C@H]2C1=O: -0.387

Task: Param item = CCN1C(=O)[C@H]2[C@H]3[C@H](O)[C@H](O)CC(=NO[C@H](C)c4cn([C@@H]5COC[C@H]5O)nn4)[C@@H]3CC[C@H]2C1=O ; retrieve measured composite z-score.
Output: -0.258

Task: Param item = CC(CCC(=O)OC[C@H]1O[C@H](C#Cc2ccccc2)C=C[C@@H]1Oc1ccc(C)cc1)=NOC[C@@H](C)[C@H](OCc1ccccc1)C(C)C ; retrieve measured composite z-score.
Output: -0.205

###

Here, each record is paired with measured composite z-score data.
- Test system: Neuregulin-1 EGF-like domain
- Assay: binders of neuregulin-1 EGF-like domain, primary screen, biochemical, small-molecule microarray, 635 nm fluorescence (AID 1081);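 also: binding of the protein to compounds printed on small-molecule microarray slides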
- Cond: small-molecule microarray binding, higher = more signal
Just the number, please, no unit after it.

Reference set (5 entries):
1. CO[C@H]1COC(=O)CC=C[C@@H](C)COC(=O)[C@H]2CCCN2C(=O)CC=C[C@H]1C: 1.06
2. CC(C)=NOC(C)CN1CCCCc2nc(C)c(C)cc21 (configuration not stated): 0.093
3. COc1ccc(COC(=O)NN=C2C[C@@H](O)[C@@H](O)[C@@H]3[C@@H]4C(=O)N([C@@H](C)c5ccccc5)C(=O)[C@@H]4CC[C@H]23)cc1: -0.592
4. CC(C)[C@@H](OCc1ccccc1)[C@H](C)C=NO[C@H](C)c1cn([C@@H]2COC[C@H]2O)nn1: 1.07
5. COC(=O)[C@H](C)NC(=O)CCC1CC(OC(=O)NCCc2ccc(F)cc2)CC2(CCCC(COC(=O)NCCc3ccccc3OC)O2)O1 (some centres not stated): 0.729

Task: Find composite z-score (Neuregulin-1 EGF-like domain) for the entry CCOC(=O)[C@H](CC(C)C)NC(=O)CCC1CC(OC(=O)NCc2ccc3c(c2)OCO3)CC2(CCCC(COC(=O)NCCOC)O2)O1 (some centres not stated)
Output: 1.07

Task: Find composite z-score (Neuregulin-1 EGF-like domain) for the entry CCOC(=O)[C@H](Cc1ccccc1)NC(=O)CCC1CC(OC(=O)NCc2ccc3c(c2)OCO3)CC2(CCCC(COC(=O)NCCc3ccc(Cl)cc3)O2)O1 (some centres not stated)
Output: 0.918

###

Here, each record is paired with measured z-score data.
- Assay: PSAC antagonists in infected red cells, primary screen, cell-based, P. falciparum Indochina, OD700, 18 h (AID 1157)
- Cond: P. falciparum Indochina infected erythrocytes, osmotic lysis OD700, 18 h; higher = more signal, called active from +8 up or from −8 down
Just the number, please, no unit after it.

Reference set (2 entries):
1) CCOC(=O)[C@H](Cc1ccccc1)NC(=O)CCC1CC(OC(=O)NCc2ccc3c(c2)OCO3)CC2(CCCC(COC(=O)NCCOC)O2)O1 (stereo not given in full): -1.67
2) CC(C)(C)N1C(=O)[C@H]2[C@@H]3C(=CC[C@H]2C1=O)C(=O)[C@H]1O[C@H]1[C@H]3O: -2.24

Task: Param item = COCCNC(=O)OCC1CCCC2(CC(OC(=O)NCc3cccc4ccccc34)CC(CCC(=O)N[C@@H](C)C(=O)OC)O2)O1 (stereo not given in full) ; retrieve measured z-score.
Output: 0.174

Task: Param item = CON=C1c2cc(OC)ccc2O[C@H](c2cccc(OC)c2)[C@H]1O ; retrieve measured z-score.
Output: 0.245

###

- Assay: A549 lung cancer cell viability effects, profiling panel, resazurin fluorescence, 24 h, PK04 Diversity Set (AID 1171); also: test concentration not given here
- Cond: higher = more signal, called active from +8 up or from −8 down
Note to self: values exactly at -0.2 are 1. So z-score at or above -0.2 is 1, below is -1.

Task: Quick check: does CN1CCc2nc(-c3ccccc3)c(-c3ccccc3)cc2C1 have z-score greater than or equal to -0.2?
Output: 1

Task: Quick check: does COc1ccc(COC(=O)NN=C2C[C@@H](O)[C@@H](O)[C@@H]3[C@@H]4C(=O)N(C5CCCCC5)C(=O)[C@@H]4CC[C@@H]23)cc1 have z-score greater than or equal to -0.2?
Output: -1

Task: Quick check: does CCN1C(=O)[C@H]2[C@H]3[C@H](O)[C@H](O)CC(=NNC(=O)OCc4ccccc4)[C@H]3CC[C@H]2C1=O have z-score greater than or equal to -0.2?
Output: -1

Task: Quick check: does C#CCCCON=C1C[C@@H](O)[C@@H](O)[C@@H]2[C@@H]3C(=O)N(C[C@@H]4CCCO4)C(=O)[C@@H]3CC[C@@H]12 have z-score greater than or equal to -0.2?
Output: 1

###

- Assay: CREB reporter modulators without forskolin, primary screen, cell-based, PC12, CRE-LacZ reporter, unstimulated (AID 1145)
- Cond: no forskolin, luminescence, 4.5 h, called active from +8 up or from −8 down
Activity calls are given as the source filed them.
Give one outcome, nothing more. List: 1.0 = active, 0.0 = inactive

1) CCOC(=O)[C@H](CC(C)C)NC(=O)CCC1CC(OC(=O)NCc2ccc3c(c2)OCO3)CC2(CCCC(COC(=O)NCCc3ccc(Cl)cc3)O2)O1 (some centres not stated): 0.0

Task: Entry COC(=O)[C@@H]1CC[C@H](C)[C@@H](c2ccc(Br)cc2)N1 : call = ?
Output: 0.0

Task: Entry COC(=O)[C@H](C)NC(=O)CCC1CC(OC(=O)NCc2cccc3ccccc23)CC2(CCCC(COC(=O)NCCc3ccccc3OC)O2)O1 (some centres not stated) : call = ?
Output: 0.0

Task: Entry CCOC(=O)[C@H](Cc1ccccc1)NC(=O)CCC1CC(OC(=O)NCc2cccc3ccccc23)CC2(CCCC(COC(=O)NCc3ccc4c(c3)OCO4)O2)O1 (some centres not stated) : call = ?
Output: 0.0

Task: Entry CCc1cc2c(nc1CC)CCN(CCC(C)=NO[C@@H]1O[C@H](COC(C)=O)[C@@H](OC(C)=O)[C@H](OC(C)=O)[C@H]1OC(C)=O)C2 : call = ?
Output: 0.0

Task: Entry O=C1[C@H]2[C@H]3[C@H](O)[C@H](O)CC(=NOCc4ccccc4)[C@H]3CC[C@H]2C(=O)N1C1CCCCC1 : call = ?
Output: 0.0

Task: Entry CCN1C(=O)[C@H]2[C@H]3[C@H](O)[C@H](O)CC(=NOCC=C(C)CCC=C(C)C)[C@@H]3CC[C@H]2C1=O : call = ?
Output: 0.0

Task: Entry C#CCCCON=C1C[C@@H](O)[C@@H](O)[C@@H]2[C@@H]3C(=O)N([C@@H](C)c4ccccc4)C(=O)[C@@H]3CC[C@@H]12 : call = ?
Output: 0.0
